Record: pIC50 reported on Serine/threonine-protein kinase pim-2 (Homo sapiens, UniProt Q9P1W9).
Sequence (Q9P1W9 whole entry): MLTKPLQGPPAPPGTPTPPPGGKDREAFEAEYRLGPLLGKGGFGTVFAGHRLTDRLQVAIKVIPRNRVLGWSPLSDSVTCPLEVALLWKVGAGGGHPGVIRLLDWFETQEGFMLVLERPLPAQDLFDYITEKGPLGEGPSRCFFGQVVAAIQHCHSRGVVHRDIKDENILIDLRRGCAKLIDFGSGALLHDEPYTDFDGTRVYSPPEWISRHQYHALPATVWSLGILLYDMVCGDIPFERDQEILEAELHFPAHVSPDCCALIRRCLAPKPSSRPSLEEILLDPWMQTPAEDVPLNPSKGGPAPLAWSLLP
pIC50: −log10 of the molar value.

Field: example entries. Status: answers known.
c1cc(-c2ccc3c(-c4ccc(N5CCNCC5)cc4)n[nH]c3n2)ccn1	< 4.60
c1ncc(-c2ccc3[nH]cc(-c4ccc(N5CCNCC5)cc4)c3c2)cn1	< 4.60
c1cc(-c2ccc3[nH]cc(-c4ccc(N5CCNCC5)cc4)c3c2)ccn1	< 4.60

Please look at the following compound next.
Input NS(=O)(=O)c1ccc(-c2ccc3c(-c4ccc(N5CCNCC5)cc4)n[nH]c3n2)cc1 . Output pIC50: < 4.60
